As a worked illustration, we turn to IC50 data collected for UniProtKB P16234.
Sequence (P16234 whole entry): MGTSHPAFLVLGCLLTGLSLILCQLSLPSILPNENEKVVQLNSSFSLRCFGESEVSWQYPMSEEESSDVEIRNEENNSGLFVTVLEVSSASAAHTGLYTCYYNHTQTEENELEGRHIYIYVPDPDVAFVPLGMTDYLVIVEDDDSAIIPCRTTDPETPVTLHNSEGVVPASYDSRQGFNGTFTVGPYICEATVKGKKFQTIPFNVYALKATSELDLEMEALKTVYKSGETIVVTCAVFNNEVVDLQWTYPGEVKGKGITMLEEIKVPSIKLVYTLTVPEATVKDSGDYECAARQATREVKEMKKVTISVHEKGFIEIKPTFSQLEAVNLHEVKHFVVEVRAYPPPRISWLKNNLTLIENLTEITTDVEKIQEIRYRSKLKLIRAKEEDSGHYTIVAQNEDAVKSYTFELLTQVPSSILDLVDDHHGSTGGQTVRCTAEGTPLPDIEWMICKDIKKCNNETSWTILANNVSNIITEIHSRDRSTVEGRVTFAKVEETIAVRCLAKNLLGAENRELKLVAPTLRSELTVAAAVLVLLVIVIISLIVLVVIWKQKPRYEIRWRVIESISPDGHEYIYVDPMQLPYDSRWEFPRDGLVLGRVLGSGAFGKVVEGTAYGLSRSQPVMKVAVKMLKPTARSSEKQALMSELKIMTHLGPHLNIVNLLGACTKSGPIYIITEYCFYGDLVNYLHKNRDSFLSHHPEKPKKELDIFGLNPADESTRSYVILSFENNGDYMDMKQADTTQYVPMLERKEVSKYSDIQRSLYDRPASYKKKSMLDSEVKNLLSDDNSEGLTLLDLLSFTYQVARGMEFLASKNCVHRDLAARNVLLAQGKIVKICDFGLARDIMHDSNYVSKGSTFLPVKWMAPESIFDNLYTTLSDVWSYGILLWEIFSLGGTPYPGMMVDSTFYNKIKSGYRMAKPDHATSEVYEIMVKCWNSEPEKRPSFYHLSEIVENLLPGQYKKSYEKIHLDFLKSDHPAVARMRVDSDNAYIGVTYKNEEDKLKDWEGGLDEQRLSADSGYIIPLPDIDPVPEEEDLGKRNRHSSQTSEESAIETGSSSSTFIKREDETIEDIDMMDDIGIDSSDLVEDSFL
READOUT_KIND: IC50 (nM)

>>> recorded_number("Cn1cc(-c2ccc3c(c2)ncn3-c2ccc(CC(=O)Nc3cc(C(C)(C)C)no3)cc2)cn1")
0.22
>>> recorded_number("CC(C)(C)c1cc(NC(=O)Cc2ccc(-n3cnc4cc(-c5cccnc5)ccc43)cc2)on1")
0.28

----------
Tested on: Huh-7
Assay: Anti-proliferative activity against human Huh-7 cells
pIC50: −log10 of the molar value.
READOUT_KIND: pIC50

>>> recorded_number("COc1cc2nccc(Oc3ccc(NC(=O)C4(C(=O)Nc5ccc(F)cc5)CC4)cc3)c2cc1OC [CABOZANTINIB]")
5.44

From: ChEMBL document CHEMBL6083222
